experiment: reduced SW480 viability measured with CellTiter-Glo, NPC library, primary (AID 1117343); conditions: CellTiter-Glo luminescence; at 20 µM (top of the series)
The reader will find reported viability decrease (inhibition) values listed item by item below.
measured property: viability decrease (inhibition) (%)

# compound, measured property, reading
rows = [
    ("NC(=O)NC(=O)Cc1ccccc1", "viability decrease (inhibition)", 38.8),
    ("CCCCNc1ccc(C(=O)OCCN(C)C)cc1", "viability decrease (inhibition)", 47),
    ("CN1CCN(c2c(F)cc3c(=O)c(C(=O)O)cn4c3c2SCC4)CC1", "viability decrease (inhibition)", -18.1),
    ("CN1C(C)(C)CCCC1(C)C", "viability decrease (inhibition)", -25.5),
    ("CNC[C@H](O)c1ccc(O)c(O)c1", "viability decrease (inhibition)", 64.8),
    ("CNS(=O)(=O)Cc1ccc2[nH]cc(CCN(C)C)c2c1", "viability decrease (inhibition)", 66.2),
    ("CCOC(=O)[C@H](CCc1ccccc1)N[C@@H](C)C(=O)N1CCC[C@H]1C(=O)O", "viability decrease (inhibition)", 12.5),
    ("CC1(C)NC(=O)N(c2ccc([N+](=O)[O-])c(C(F)(F)F)c2)C1=O", "viability decrease (inhibition)", 18.3),
    ("CCn1cc(C(=O)O)c(=O)c2cc(F)c(N3CCNC(C)C3)c(F)c21 (centres undefined)", "viability decrease (inhibition)", -10.7),
    ("CC(=O)Nc1ccc(CC(=O)O)cc1", "viability decrease (inhibition)", 16.5),
    ("CC1(C)OC(=O)NC1=O", "viability decrease (inhibition)", 11.1),
    ("COc1ncnc(NS(=O)(=O)c2ccc(N)cc2)c1OC", "viability decrease (inhibition)", -16.8),
    ("O=C(O)[C@@H](O)[C@H](O)[C@H](O)[C@@H](O)C(=O)O", "viability decrease (inhibition)", 57.2),
    ("Cc1onc(-c2ccccc2Cl)c1C(=O)N[C@@H]1C(=O)N2[C@@H]1SC(C)(C)[C@@H]2C(=O)O", "viability decrease (inhibition)", -3.3),
    ("O=C(O)c1ccccc1C(=O)Nc1ccc(S(=O)(=O)Nc2nccs2)cc1", "viability decrease (inhibition)", 20.3),
    ("C[C@@](Cc1ccc(O)c(O)c1)(NN)C(=O)O", "viability decrease (inhibition)", 88.8),
    ("CC(C)(Oc1ccc(CCNC(=O)c2ccc(Cl)cc2)cc1)C(=O)O", "viability decrease (inhibition)", -13.9),
    ("COc1ccc2[nH]cc(CCNC(C)=O)c2c1", "viability decrease (inhibition)", 20.8),
    ("CCN1CCCC(OC(=O)C(c2ccccc2)c2ccccc2)C1 (centres undefined)", "viability decrease (inhibition)", 71.6),
    ("Cc1nc(-c2ccc(OCC(C)C)c(C#N)c2)sc1C(=O)O", "viability decrease (inhibition)", 57.5),
    ("O=C(COc1ccc(Cl)cc1)N1CCN(Cc2ccc3c(c2)OCO3)CC1", "viability decrease (inhibition)", 56.1),
    ("NC(CS)C(=O)O (centres undefined)", "viability decrease (inhibition)", 34.5),
    ("CCC1=C(C)CN(C(=O)NCCc2ccc(S(=O)(=O)NC(=O)NC3CCC(C)CC3)cc2)C1=O (centres undefined)", "viability decrease (inhibition)", 17.1),
    ("NC(=O)N/N=C/c1ccc([N+](=O)[O-])o1", "viability decrease (inhibition)", 68.8),
]
